// self-cleavage kobs at 40 uM GlcN6P lookup, one value per entry
B1: glmS ribozyme (parent)
chain: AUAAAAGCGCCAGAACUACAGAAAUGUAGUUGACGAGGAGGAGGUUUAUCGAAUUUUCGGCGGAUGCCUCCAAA

Variants of: B1
Experiment: self-cleavage kobs at 40 uM GlcN6P; higher = faster cleavage; RNA array
Settings: with glucosamine-6-phosphate
Fewer inactive variants are shown than the library holds.

Example cases with answers are listed next.
A39G U54G = 0.00177 s⁻¹
A14C A42G = 0.000181 s⁻¹
C8A C10A G38A C50G = 3.68e-05 s⁻¹
G9U A48U C58G C67U = < 1e-05 s⁻¹
A12C U69C = 0.000133 s⁻¹
A48C A64C = < 1e-05 s⁻¹
G32A G40C A48U = < 1e-05 s⁻¹
A14G G29U C34U = < 1e-05 s⁻¹
U30G G44U = < 1e-05 s⁻¹
G9A G63A = < 1e-05 s⁻¹

Write down self-cleavage kobs at 40 uM GlcN6P measured for item G51A C67U
< 1e-05 s⁻¹

For the variant G29C U31C G37A C67A , give its reported self-cleavage kobs at 40 uM GlcN6P.
< 1e-05 s⁻¹

Please look at this variant and report its self-cleavage kobs at 40 uM GlcN6P: A15G G37C
< 1e-05 s⁻¹

Quote self-cleavage kobs at 40 uM GlcN6P reported for G7C C10U A15U U49C please.
< 1e-05 s⁻¹

For the variant A33U A48G A53U U57C , give its measured self-cleavage kobs at 40 uM GlcN6P value.
< 1e-05 s⁻¹
